- PROTOCOL: growth inhibitors of H69AR lung tumor, primary screen, human, duplicate replicates (AID 580);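 also: 100% = mean luminescence of untreated wells and 0% = no signal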
- CONDITION INFO: H69AR lung tumor cells viability, ATP luminescence, 72 h; at 10 µM; stronger effect = lower value
MEASURED PARAMETER: viability (%)
# output: bare number, implied unit %

[Q] Given the compound CCCCNS(=O)(=O)c1ccc(OC)c2ncccc12 , what is its reported viability?
[A] 90

[Q] Param item: O=S(=O)(Nc1cccnc1)c1cc(Cl)ccc1Cl
[A] 82.8

[Q] Param item: CCc1cc(C)cc(OCCNC(=O)c2ncn[nH]2)c1
[A] 90.8

[Q] Param item: CCCOc1ccc(C2c3c(oc4ccccc4c3=O)C(=O)N2CCCN2CCOCC2)cc1 (stereo not given)
[A] 71.6

[Q] Param item: COc1ccccc1C(=O)n1nc(-c2ccccc2)nc1N
[A] 87.9

[Q] Param item: COc1cc(OC)cc(OCC(O)Cn2cnc(-c3ccccc3)c2)c1 (stereo not given)
[A] 83.8

[Q] Param item: NC(=O)c1nsnc1-c1ccccc1O
[A] 90.2

[Q] Param item: COc1ccc(S(=O)(=O)n2ccnc2)c2cccnc12
[A] 96.1

[Q] Param item: O=S(=O)(Nc1ccc(Cc2ccncc2)cc1)N1CCCC1
[A] 92.4

[Q] Param item: CCSCCNC(=O)c1cc(-n2cnnc2)ccc1Cl
[A] 86.3

[Q] Param item: c1ccc(Nc2ccccc2Nc2ccccn2)nc1
[A] 91.7

[Q] Param item: COc1ccc(S(=O)(=O)N2CCSC2c2ccccc2)cc1 (stereo not given)
[A] 76.9

[Q] Param item: NCc1cccc(-n2cccn2)c1
[A] 82.6

[Q] Param item: CCCCc1c(O)nc(SCC(=O)c2ccccc2)[nH]c1=O
[A] 104

[Q] Param item: O=C(OC1CCOC1=O)c1ccc2ccccc2n1 (stereo not given)
[A] 102

[Q] Param item: CCOC(OCC)P(=O)(C(C)C)C(C)C
[A] 91.8

[Q] Param item: Cc1cc(C)n(-c2ccc(C(=O)Oc3ccc4c(c3)OCO4)cc2)n1
[A] 90.7

[Q] Param item: COc1ccc(C2C(=O)N(C3CCCCC3)CC(=O)N2Cc2ccco2)cc1 (stereo not given)
[A] 97.7

[Q] Param item: O=S(=O)(c1cc(Cl)ccc1Br)N1CCOCC1
[A] 91

[Q] Param item: CCC(Sc1nc2sc(C(=O)OC)c(C)c2c(=O)n1N)C(=O)NCC1CCCO1 (stereo not given)
[A] 82.2

[Q] Param item: CCn1c(CC(=O)Nc2cccc(OC)c2)nnc1SCC(=O)Nc1nccs1
[A] 101

[Q] Param item: COc1ccc2nc3oc(C(=O)NC4CCN(Cc5ccccc5)CC4)cc3cc2c1
[A] 82.6

[Q] Param item: CCOC(=O)Cc1csc(NC(=O)CN(C)S(=O)(=O)c2ccc3c(c2)CCC(=O)N3)n1
[A] 100

[Q] Param item: CCn1c(COc2cccc3ccccc23)nnc1SCC(N)=O
[A] 91.1

[Q] Param item: Cc1cc(SCC(N)=O)nc(SCC(=O)c2ccccc2)n1
[A] 99.8
